B1: TMEM40 (parent)
chain: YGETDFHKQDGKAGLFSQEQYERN

- Variants of: B1
- runDescription: protein stability index of a GFP-peptide fusion (GPS, HEK-293T) (PSI 1-6); higher = more stable;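 note: lentivirally expressed fusions sorted by FACS into six bins by GFP to DsRed ratio, PSI derived from sequencing read proportions per bin multiplied by bin number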
- particulars: c terminus: a fixed tail appended
Everything with protein stability index lower than 4 is False; everything else, including exactly 4, is True.

Say whether YGETDFHKQDGKAGLFSQEQYEEN [R23E] shows protein stability index of 4 or more.
True

And then YGETDFPKQDGKAGLFSQEQYERN [H7P] , what is it?
True

Cool, now YGETDFHKQDGKAGLFSQEQYERL [N24L]
True

Another variant to look at: YGETDFHKQDGPAGLFSQEQYERN [K12P]
True

Entry YGETDFHKQDGKAGLFSQEYYERN [Q20Y] please
False

Could you do the same for YGETDFVKQDGKAGLFSQEQYERN [H7V] , please?
True

Another: YGETDEHKQDGKAGLFSQEQYERN [F6E]
True

Now this one: YGETDFHKQDGCAGLFSQEQYERN [K12C]
True

Thanks! And YGETMFHKQDGKAGLFSQEQYERN [D5M] ?
False

Moving on to YGETDFHKQDGKAGLFSQEQFERN [Y21F]
True

Do the same for YGETDFHKQDGKAGLFSQHQYERN [E19H] please
False

Then YGETDFHKQDGKAGDFSQEQYERN [L15D] ?
True

Similarly, YGETDFHKQDGKAGLFSQEQYERF [N24F] ?
False

What about YGETDFHKQDGKAGLFSQEEYERN [Q20E] ?
True

Same read-out for YGETDFHKQDGKAGLFLQEQYERN [S17L] ?
False

Now this one: YGETSFHKQDGKAGLFSQEQYERN [D5S]
False

Entry YGETDFHKQDGKAMLFSQEQYERN [G14M] please
True

And what about the variant YGETDFHKQDGKAGLFSTEQYERN [Q18T] ?
False

What would you report for YGETDFHKQDVKAGLFSQEQYERN [G11V] ?
True

Same thing, different variant: YAETDFHKQDGKAGLFSQEQYERN [G2A]
False

Sourced from the supplement of paper PMC10567573
